Where do the numbers come from? From PubChem BioAssay (EPA / NIEHS).

Assay: TOX21_p53_BLA_p2_viability: Viability Assessment in the Tox21 HCT-116 p53 Agonism Beta-lactamase Assay, Phase 2 (AID 2283591);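 note: compound exposure lasted 16 h at 37 °C; actives lower the ATP signal meaning cytotoxicity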
Inconclusive results are not listed. The source made the active and inactive calls. Rule for the calls: active = hit-call score of the fitted dose curve at least 0.9, where 1 is the maximum; inconclusive = response in the unintended direction; inactive = score below 0.9.
# valid calls are active, inactive; nothing else

Some solved entries appear below for comparison.
CC(=O)CC(=O)N(C)C; inactive
CCC(C)(C)C1CCC(=O)CC1; inactive
CC1COC(=O)O1 (configuration not stated); inactive
C=C(C)C(N)=O; inactive
CCCCCCCCOS(=O)(=O)O; inactive

Req: So what was the verdict on CC1=CC(C)C(C=O)C(C)C1 (configuration not stated) (tested in a mixture with another compound) in this test?
Resp: inactive

Req: Check the results log: what was the call for "CCCCOCCOC(=O)c1ccccc1C(=O)OCCOCCCC" ?
Resp: inactive

Req: What is the recorded call for this compound in the test? "CN(C)CCC=C1c2ccccc2CCc2ccccc21"
Resp: active

Req: How was "CC(C)C(=O)OCC=Cc1ccccc1" classified in this test?
Resp: inactive

Req: Field: outcome | Entry: "NCCN1CCNCC1"
Resp: inactive

Req: Status in this test for CCOC(=O)CC1(C)OCC(C)O1 (configuration not stated) ?
Resp: inactive

Req: What was the test verdict on "O=S(=O)(O)CCCN1CCOCC1" ?
Resp: inactive

Req: What outcome does the record of this test show for "CCCCCCCCCCCCCC(=O)OCC" ?
Resp: inactive

Req: Status in this test for "O=c1cc(-c2ccc(O)cc2)oc2cc(O)cc(O)c12" ?
Resp: inactive

Req: Could you check what this test reported for CCC(C)(C)C1CCC(OC)CC1 (configuration not stated) ?
Resp: inactive

Req: Tell me the assay call for "O=S(=O)(O)c1cc(O)c(O)c(S(=O)(=O)O)c1" please.
Resp: inactive

Req: Recorded test outcome, item "C=CCOC(=O)/C=C\C(=O)OCC=C"
Resp: inactive

Req: Per the records of this test, what outcome belongs to CCCC(O)C(CC)CO (configuration not stated) ?
Resp: inactive

Req: In this assay, the call recorded for "CC(=O)OC/C=C(C)/C=C/C=C(C)/C=C/C1=C(C)CCCC1(C)C" was what?
Resp: inactive

Req: Call for entry C=CC(O)CCCCC (configuration not stated) :
Resp: inactive

---

Target: sheep Cyclooxygenase-1 (Cox1), PTGS1 (gene 443551) (UniProt P05979)
Sequence (P05979 whole entry, looked up): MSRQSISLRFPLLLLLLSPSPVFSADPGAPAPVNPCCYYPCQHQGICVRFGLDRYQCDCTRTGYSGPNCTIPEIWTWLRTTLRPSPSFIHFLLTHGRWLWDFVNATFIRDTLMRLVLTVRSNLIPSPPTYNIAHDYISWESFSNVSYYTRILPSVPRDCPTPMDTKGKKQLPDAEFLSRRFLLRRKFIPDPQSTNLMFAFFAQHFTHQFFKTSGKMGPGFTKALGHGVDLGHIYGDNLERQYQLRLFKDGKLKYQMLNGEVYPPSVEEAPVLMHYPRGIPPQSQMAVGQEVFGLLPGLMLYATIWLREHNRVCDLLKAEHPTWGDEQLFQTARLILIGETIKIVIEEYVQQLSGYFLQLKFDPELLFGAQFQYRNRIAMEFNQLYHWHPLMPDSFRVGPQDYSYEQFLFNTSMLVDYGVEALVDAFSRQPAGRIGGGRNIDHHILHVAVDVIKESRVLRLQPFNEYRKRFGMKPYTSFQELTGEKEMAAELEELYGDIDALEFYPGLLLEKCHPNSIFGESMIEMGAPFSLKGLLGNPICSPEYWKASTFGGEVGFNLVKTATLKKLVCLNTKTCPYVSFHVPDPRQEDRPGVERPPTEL
Experiment: NVS_ENZ_oCOX1: NovaScreen (NVS) Enzymatic Assay for sheep Cyclooxygenase-1 (Cox1) (AID 2283239);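 note: actives reduce cyclooxygenase activity so potencies are for inhibitors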
Records with an inconclusive call do not appear. Calls of active or inactive are those of the source. The calls were made as follows: active = hit-call score of the fitted dose curve at least 0.9, where 1 is the maximum; inconclusive = response in the unintended direction; inactive = score below 0.9.
The reply should name one outcome from y for active, n for inactive

These recorded examples may help you get a feel for the data.
O=C1OC2(c3ccc(O)cc3Oc3cc(O)ccc32)c2ccccc21; y
CC(=O)c1ccc(C)cc1; n
Cc1cc(N)n(-c2ccccc2)n1; n
CC(C)(O)CCc1ccccc1; n
c1ccc(Sc2ccccc2)cc1; n

Req: Record request — test call for "CCCCCCCCCCCCS"
Resp: y

Req: Identify the outcome logged in this assay for the compound shown: "Cc1ccc(C(C)(C)O)cc1"
Resp: n

---

Read-out: Interleukin-6 (IL6), IL6 (gene 3569)
Test: BSK_CASM3C_IL6: BioMAP Diversity Plus: CASM3C Assay for Interleukin-6 (IL6) Biomarker Activity for (AID 2283040)
Conditions: primary human coronary artery smooth muscle cells; actives raise or lower the signal
Activity calls are given as the source filed them. Rule for the calls: active = hit-call score of the fitted dose curve at least 0.9, where 1 is the maximum; inactive = score below 0.9.
Outcome field: choose from active, inactive

Some solved cases for reference:
C=C(C)C(N)=O; inactive
O=C(O)C(F)(F)C(F)(F)C(F)(F)C(F)(F)C(F)(F)C(F)(F)C(F)(F)C(F)F; inactive
CCCCCCCCCC(=O)OCC; active
O=C(O)C(F)(F)OC(F)(F)C(F)(F)OC(F)(F)C(F)(F)C(F)(F)C(F)(F)F; inactive
CC(=O)c1ccc(C)cc1; inactive
CC(=O)OCC=C(C)CCC=C(C)CCC=C(C)C; inactive
CCOC(=O)CCCCCCCCC(=O)OCC; inactive
C=CC(=O)OCC(CO)(COC(=O)C=C)COC(=O)C=C; active

Req: # fetch the recorded call for "C#C[C@]1(O)CC[C@H]2[C@@H]3CCc4cc(O)ccc4[C@H]3CC[C@@]21C" here
Resp: inactive

Req: What did the test return for "O=S(=O)(O)C(F)(F)C(F)(F)OC(F)(F)C(F)(F)F" ?
Resp: inactive

Req: Please share the test call associated with "CC(C)(CO)CO" .
Resp: inactive

Req: Please let me know the test result on file for CC(C)Cc1ccc(C(C)C(=O)O)cc1 (stereo not drawn) .
Resp: active

Req: Entry "OCCN1CCOCC1" : call = ?
Resp: inactive
